test: PK study in rats (oral); format: in vivo; conditions: Sprague-Dawley, rat, plasma; Male SD, 1 mg/kg oral
readout_name: Tmax (min)
Kindly provide the numeric value in min only, without the unit symbol.

Note Tmax for the compound shown: CNC(=O)c1ccc2ccn(C3CCN(CCc4c(OC)ccc5c4OC(C)(C)CC5=O)CC3)c2c1.O=C(O)/C=C/C(=O)O
30

###

assay: PK study in rats (oral); format: in vivo; settings: Sprague-Dawley, rat, plasma; Male SD, 1 mg/kg oral; read-out: AUC0-8hr
readout_name: AUC(0-t) (ng·h/mL)
Quick reminder: number only, in ng·h/mL, skip the unit.

Please supply the value of reported AUC(0-t) for the item CNC(=O)c1ccc2ccn(C3CCN(CCc4c(OC)ccc5c4OC(C)(C)CC5=O)CC3)c2c1.O=C(O)/C=C/C(=O)O
71.8
